The measurements presented in this section are drawn from paper PMC4945764.

target: cardiac ryanodine receptor (RyR2) (Homo sapiens, UniProt Q92736); construct: recombinant eGFP-hRyR2, purified from HEK293 cells; test: single-channel recording of purified hRyR2 in planar lipid bilayers, +[…] mV, cytosolic to luminal K+ current
Sequence (Q92736 whole entry): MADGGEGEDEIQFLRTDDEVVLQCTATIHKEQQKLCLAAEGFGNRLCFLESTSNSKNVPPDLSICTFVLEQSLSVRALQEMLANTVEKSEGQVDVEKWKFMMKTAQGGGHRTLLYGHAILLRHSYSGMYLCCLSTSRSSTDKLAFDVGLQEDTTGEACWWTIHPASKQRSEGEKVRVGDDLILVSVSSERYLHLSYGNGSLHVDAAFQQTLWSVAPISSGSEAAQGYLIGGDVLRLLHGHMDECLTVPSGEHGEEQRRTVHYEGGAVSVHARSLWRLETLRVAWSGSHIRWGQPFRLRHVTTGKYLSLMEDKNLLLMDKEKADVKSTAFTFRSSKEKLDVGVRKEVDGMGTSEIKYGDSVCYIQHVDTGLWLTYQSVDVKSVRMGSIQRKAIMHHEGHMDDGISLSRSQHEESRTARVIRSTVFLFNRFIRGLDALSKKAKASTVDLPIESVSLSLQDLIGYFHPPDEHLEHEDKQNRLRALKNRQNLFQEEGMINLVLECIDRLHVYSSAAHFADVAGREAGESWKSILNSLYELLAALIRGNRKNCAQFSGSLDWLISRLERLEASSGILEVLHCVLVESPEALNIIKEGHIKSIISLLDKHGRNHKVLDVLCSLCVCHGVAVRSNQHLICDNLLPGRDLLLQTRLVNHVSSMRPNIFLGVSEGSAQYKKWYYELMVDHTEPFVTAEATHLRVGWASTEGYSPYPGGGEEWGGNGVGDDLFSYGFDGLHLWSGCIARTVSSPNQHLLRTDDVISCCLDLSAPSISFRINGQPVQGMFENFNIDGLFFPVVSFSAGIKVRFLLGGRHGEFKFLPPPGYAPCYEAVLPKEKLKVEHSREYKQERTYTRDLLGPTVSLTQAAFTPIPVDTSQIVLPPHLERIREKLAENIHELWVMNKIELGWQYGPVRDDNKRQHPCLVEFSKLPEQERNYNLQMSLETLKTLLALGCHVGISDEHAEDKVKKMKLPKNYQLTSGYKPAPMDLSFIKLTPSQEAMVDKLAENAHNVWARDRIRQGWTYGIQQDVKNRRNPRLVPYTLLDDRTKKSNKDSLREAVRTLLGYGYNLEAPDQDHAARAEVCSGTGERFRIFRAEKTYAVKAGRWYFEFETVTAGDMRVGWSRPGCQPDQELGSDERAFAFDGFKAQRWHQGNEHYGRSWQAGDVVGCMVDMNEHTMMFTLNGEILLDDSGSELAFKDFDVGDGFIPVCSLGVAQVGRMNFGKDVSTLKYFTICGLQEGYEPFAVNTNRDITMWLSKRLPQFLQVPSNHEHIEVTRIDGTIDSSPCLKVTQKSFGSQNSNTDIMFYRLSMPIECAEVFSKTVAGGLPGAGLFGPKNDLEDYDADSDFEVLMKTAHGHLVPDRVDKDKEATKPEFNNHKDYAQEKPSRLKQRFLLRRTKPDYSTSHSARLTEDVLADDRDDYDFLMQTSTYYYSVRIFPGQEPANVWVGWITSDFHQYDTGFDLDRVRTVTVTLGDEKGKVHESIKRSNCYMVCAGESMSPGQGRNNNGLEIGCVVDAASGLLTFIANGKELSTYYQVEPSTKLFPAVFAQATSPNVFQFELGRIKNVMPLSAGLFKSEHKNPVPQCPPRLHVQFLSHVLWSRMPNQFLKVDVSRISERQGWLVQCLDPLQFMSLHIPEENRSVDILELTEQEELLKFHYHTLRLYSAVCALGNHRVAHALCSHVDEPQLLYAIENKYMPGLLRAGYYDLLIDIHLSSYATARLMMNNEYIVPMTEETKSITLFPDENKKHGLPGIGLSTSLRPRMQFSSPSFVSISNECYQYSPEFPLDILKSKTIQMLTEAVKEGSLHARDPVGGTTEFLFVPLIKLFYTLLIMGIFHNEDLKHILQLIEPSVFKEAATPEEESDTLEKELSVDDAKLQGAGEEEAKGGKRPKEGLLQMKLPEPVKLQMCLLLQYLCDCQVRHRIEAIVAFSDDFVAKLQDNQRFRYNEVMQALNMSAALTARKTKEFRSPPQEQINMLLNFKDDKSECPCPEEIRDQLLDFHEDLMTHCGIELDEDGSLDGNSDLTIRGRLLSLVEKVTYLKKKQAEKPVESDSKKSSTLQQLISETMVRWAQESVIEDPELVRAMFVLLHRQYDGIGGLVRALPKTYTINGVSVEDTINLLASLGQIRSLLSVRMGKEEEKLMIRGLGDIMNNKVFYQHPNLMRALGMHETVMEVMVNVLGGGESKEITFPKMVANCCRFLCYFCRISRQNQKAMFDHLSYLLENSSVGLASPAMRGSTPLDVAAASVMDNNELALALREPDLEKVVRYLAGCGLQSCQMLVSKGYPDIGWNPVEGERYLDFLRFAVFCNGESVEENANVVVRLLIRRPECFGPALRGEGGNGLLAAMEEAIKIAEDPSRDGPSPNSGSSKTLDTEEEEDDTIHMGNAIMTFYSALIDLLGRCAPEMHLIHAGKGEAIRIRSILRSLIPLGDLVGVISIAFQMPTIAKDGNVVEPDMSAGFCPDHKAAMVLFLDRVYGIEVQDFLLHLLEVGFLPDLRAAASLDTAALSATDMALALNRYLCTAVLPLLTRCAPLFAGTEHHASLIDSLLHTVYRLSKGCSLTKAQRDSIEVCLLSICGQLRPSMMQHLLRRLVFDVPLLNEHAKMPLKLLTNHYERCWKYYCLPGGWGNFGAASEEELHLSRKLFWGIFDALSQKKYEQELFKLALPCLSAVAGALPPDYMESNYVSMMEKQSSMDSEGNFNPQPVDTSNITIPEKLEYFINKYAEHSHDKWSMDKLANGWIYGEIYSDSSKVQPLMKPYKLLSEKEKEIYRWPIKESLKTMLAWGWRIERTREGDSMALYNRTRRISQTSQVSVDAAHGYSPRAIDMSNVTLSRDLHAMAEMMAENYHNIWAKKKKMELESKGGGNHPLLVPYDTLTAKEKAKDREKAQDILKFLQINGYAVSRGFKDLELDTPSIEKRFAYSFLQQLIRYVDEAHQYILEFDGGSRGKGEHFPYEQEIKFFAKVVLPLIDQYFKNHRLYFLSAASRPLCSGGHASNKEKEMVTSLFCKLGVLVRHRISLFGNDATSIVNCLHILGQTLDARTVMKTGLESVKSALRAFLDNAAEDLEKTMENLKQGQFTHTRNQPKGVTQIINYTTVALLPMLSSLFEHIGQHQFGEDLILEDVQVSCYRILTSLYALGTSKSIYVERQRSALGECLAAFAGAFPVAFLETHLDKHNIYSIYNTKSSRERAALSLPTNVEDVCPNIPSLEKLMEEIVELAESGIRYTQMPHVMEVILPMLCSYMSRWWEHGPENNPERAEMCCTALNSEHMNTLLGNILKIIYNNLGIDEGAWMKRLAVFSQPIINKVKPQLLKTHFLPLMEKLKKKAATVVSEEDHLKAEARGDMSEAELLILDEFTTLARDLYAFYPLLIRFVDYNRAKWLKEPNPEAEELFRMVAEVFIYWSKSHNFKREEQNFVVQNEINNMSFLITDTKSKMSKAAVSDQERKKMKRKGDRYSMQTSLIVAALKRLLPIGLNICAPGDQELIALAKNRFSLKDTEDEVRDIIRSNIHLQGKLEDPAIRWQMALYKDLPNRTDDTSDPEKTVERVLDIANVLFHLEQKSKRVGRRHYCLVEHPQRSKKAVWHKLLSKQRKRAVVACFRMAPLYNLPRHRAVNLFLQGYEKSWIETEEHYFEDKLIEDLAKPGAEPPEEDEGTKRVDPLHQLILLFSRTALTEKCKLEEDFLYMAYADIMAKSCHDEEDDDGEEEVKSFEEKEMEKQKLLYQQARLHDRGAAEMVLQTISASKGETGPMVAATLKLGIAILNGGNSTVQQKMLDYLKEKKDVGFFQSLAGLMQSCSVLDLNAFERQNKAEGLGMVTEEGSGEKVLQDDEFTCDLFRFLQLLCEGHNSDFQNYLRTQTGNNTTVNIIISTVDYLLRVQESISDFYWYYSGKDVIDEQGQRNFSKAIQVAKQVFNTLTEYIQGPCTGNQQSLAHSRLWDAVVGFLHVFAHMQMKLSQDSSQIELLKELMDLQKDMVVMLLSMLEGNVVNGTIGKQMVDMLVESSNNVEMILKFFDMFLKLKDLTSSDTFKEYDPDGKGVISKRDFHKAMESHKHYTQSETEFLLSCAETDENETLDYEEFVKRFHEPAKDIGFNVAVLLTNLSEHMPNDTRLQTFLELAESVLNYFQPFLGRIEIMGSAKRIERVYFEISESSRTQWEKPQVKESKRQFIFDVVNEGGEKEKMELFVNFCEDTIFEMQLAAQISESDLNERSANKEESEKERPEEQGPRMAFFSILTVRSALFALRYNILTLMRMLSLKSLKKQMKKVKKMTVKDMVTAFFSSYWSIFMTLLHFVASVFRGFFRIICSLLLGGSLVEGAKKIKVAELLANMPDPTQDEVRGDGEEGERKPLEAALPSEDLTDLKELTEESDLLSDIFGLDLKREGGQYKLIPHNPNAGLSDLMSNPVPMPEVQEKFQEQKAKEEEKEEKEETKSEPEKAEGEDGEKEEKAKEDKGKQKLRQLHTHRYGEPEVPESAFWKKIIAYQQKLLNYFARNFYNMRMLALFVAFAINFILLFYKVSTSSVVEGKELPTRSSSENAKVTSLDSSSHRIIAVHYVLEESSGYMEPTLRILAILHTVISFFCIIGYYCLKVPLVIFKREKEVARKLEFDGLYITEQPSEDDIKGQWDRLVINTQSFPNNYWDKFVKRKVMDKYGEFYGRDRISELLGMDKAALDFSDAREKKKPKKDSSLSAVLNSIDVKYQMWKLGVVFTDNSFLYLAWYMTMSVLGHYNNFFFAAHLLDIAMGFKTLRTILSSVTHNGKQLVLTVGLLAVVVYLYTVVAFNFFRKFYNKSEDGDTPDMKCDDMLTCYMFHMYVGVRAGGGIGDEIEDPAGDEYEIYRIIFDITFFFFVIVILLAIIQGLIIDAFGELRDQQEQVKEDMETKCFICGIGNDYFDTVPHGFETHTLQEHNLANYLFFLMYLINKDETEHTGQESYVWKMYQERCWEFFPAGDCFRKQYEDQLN
Quantity Name: Kd (µM)
Answers are plain numbers, in µM.

Incoming: What Kd value was documented for this compound, O=C(NCC1CCCCN1)c1cc(OCC(F)(F)F)ccc1OCC(F)(F)F (stereo not shown) [flecainide] ?
Outgoing: 13.1
